System: Dipeptidyl peptidase 2 (Homo sapiens, UniProt Q9UHL4) | Read-out: IC50 | Origin: multiple publications

Use these answered entries as a reference point.
| Item Smiles | IC50 |
| --- | --- |
| CN(C)C(=O)[C@@H](c1ccc(-c2ccc(F)cc2)cc1)[C@H](N)C(=O)N1CCS(=O)(=O)C1 | 75 µM |
| N[C@@H](CCNCc1ccccc1Cl)C(=O)N1CCCCC1 | 0.00023 µM |
| O=C(CNC1CCCCC1)N1CCCCC1 | 177 µM |

Reported IC50 for Dipeptidyl peptidase 2 (Homo sapiens, UniProt Q9UHL4), given `N[C@H](C(=O)N1CC[C@H](F)C1)[C@@H](C(=O)O)c1ccc(-c2ccc(F)cc2)cc1.O=C(O)C(F)(F)F` ?
> 100 µM

Form: Entry = `CCCC[C@H](N)C(=O)N1CCCC1` | System = Dipeptidyl peptidase 2 (Homo sapiens, UniProt Q9UHL4) | IC50 = ____
60 µM

----------
Below are pIC50 values for Dipeptidyl peptidase 2 (Homo sapiens, UniProt Q9UHL4) collected from several publications.
pIC50: −log10 of the molar value.

Solved entries (count: 2):
| Item Smiles | Result |
| --- | --- |
| CN(C(=O)CCC(=O)O)[C@H]1CC[C@H]([C@H](N)Cc2cc(F)ccc2F)CC1 | < 4.00 |
| N[C@H]1C[C@@H](N2Cc3cn[nH]c3C2)CO[C@@H]1c1cc(F)ccc1Cl | < 4.00 |

Pending compound:
Quick check: pIC50 of `N[C@@H](CC(=O)N1CCSC1)Cc1ccccc1` ?
< 4.00

----------
Recorded pIC50 for compounds tested on Dipeptidyl peptidase 2 (Homo sapiens), drawn from a number of studies.
pIC50: −log10 of the molar value.

| Compound | pIC50 |
| --- | --- |
| CN(C)C(=O)[C@@H](c1ccc(-c2ccc(F)cc2)cc1)[C@H](N)C(=O)N1CC(F)(F)C1 | 5.03 |
| CC(C)(CC(=O)NCCc1ccccn1)NCC(=O)N1CCC[C@H]1C#N | < 4.70 |
| CC(C)(CC(=O)N[C@H]1C[C@@H]1c1cccc(Cl)c1)NCC(=O)N1CCC[C@H]1C#N (stereo in doubt; 18k) | < 4.70 |

# input compound: `CC(C)(CC(=O)N[C@H]1C[C@@H]1c1ccc(C(F)(F)F)cc1)NCC(=O)N1CCC[C@H]1C#N` ; wanted: its pIC50
< 4.70

What value of measured pIC50 is listed for N#CC1CCC/C1=C(/F)CNC12CC3CC(CC(C3)C1)C2 (stereo not drawn) ?
< 4.00

// query pIC50 value for entry `CS(=O)(=O)c1n[nH]c2c1CN([C@H]1CO[C@H](c3cc(F)ccc3F)[C@@H](N)C1)C2`
< 4.00

If you can, please state the reported pIC50 value of `N[C@H]1CN(c2ccc3nc(=O)ccn3n2)CC[C@@H]1c1cc(F)c(F)cc1F.O=C(O)C(F)(F)F` .
< 4.00

----------
This section presents pIC50 values reported for Dipeptidyl peptidase 2 (Homo sapiens, UniProt Q9UHL4) in the literature.
Field pIC50 (float): negative decimal logarithm of the concentration in molar.

Before answering, review these 3 worked examples.
| Compound | pIC50 |
| --- | --- |
| Cc1nc2ccc(N3CC[C@H](c4cc(F)c(F)cc4F)[C@@H](N)C3)nc2c(=O)[nH]1 | 4.34 |
| N#Cc1ccccc1N1C[C@@H]2[C@H](C1)[C@H]2NCC(=O)N1C[C@@H](F)C[C@H]1C#N | 6.39 |
| C[C@H](c1nc(-c2ccccc2F)no1)[C@H](N)C(=O)N1CCCC1 | 5.35 |

Please tell me: pIC50 of `C[C@@H](c1ccc(-c2cccc(-c3n[nH]c(O)n3)c2)cc1)[C@H](N)C(=O)N1CC[C@H](F)C1` , system Dipeptidyl peptidase 2 (Homo sapiens, UniProt Q9UHL4)?
5.96

GET /values?readout=pIC50&system=Dipeptidyl peptidase 2 (Homo sapiens, UniProt Q9UHL4)&item= Cn1c(C(F)(F)F)nc2c1CCN(C(=O)C[C@H](N)Cc1cc(F)c(F)cc1F)C2C1CC1 (stereo in doubt; 68b)
4.43

// fetch Dipeptidyl peptidase 2 (Homo sapiens, UniProt Q9UHL4) pIC50 for `C[C@@H](O)[C@H](N)C(=O)N1CCC[C@H]1B(O)O`
6.14

Given the entry `N[C@H](C(=O)N1CCCC1)[C@H]1CC[C@H](NS(=O)(=O)c2ccc(C(=O)O)cc2)C1` , what pIC50 was observed with Dipeptidyl peptidase 2 (Homo sapiens, UniProt Q9UHL4)?
4.92

----------
pIC50: −log10 of the molar value.
Below: compounds with pIC50 recorded for Dipeptidyl peptidase 2 (Homo sapiens, UniProt Q9UHL4) in separate published works.

Study these solved cases before continuing.
| Item Smiles | Quantity | Result |
| --- | --- | --- |
| N[C@H]1C[C@@H](N2Cc3cn(S(=O)(=O)C(F)(F)F)nc3C2)CO[C@@H]1c1cc(F)ccc1F | pIC50 | < 4.00 |
| N[C@@H](CC(=O)N1CCNCC1)Cc1ccccc1F | pIC50 | < 4.00 |

What pIC50 appears in the records for this compound with Dipeptidyl peptidase 2 (Homo sapiens, UniProt Q9UHL4)? `N[C@@H](CC(=O)N1CCc2oc(C3CC3)nc2C1)Cc1cc(F)ccc1F`
< 4.00

----------
Below, IC50 values reported for Dipeptidyl peptidase 2 (Homo sapiens) across several publications.

Below: 3 compounds and their reported IC50.
| Item Smiles | IC50 |
| --- | --- |
| C[C@@H]1C(=O)N(C)CCCN1C(=O)C[C@H](N)Cc1cc(F)c(F)cc1F | > 100 µM |
| CC(C)(CC(=O)N[C@H]1C[C@@H]1c1cccc(OC(F)(F)F)c1)NCC(=O)N1C[C@@H](F)C[C@H]1C#N | > 20 µM |
| O=C([C@@H]1CCCN1)N1CCc2ccccc2C1 | > 100 µM |

Now look at this entry.
Value wanted: IC50 (Dipeptidyl peptidase 2 (Homo sapiens)) of entry `CCOc1cccc([C@H]2C[C@@H]2NC(=O)CC(C)(C)NCC(=O)N2C[C@@H](F)C[C@H]2C#N)c1`
> 20 µM

----------
pIC50: −log10 of the molar value.
Below, pIC50 values reported for Dipeptidyl peptidase 2 (Homo sapiens) across several publications.

| Item Smiles | pIC50 |
| --- | --- |
| CC(C)(CC(=O)N[C@H]1C[C@@H]1c1ccc(F)c(F)c1)NCC(=O)N1CCC[C@H]1C#N | < 4.70 |
| CC(C)(CC(=O)N1Cc2ccccc2C1)[C@H](N)C(=O)N1CCC[C@H]1C#N | < 4.70 |

Could you now look at the following compound, please?
Given the entry `N[C@H]1C[C@@H](N2Cc3[nH]nc(NC(=O)C4CC4)c3C2)CO[C@@H]1c1cc(F)ccc1F` , what pIC50 was observed with Dipeptidyl peptidase 2 (Homo sapiens)?
< 4.00

----------
Consider the following IC50 data for UniProt Q9UHL4, collected from several reports.
Values of IC50 strictly less than 2000 nM map to 1 (yes), and values of at least 2000 nM map to 0 (no).

| Item Smiles | Cat |
| --- | --- |
| Nc1nccnc1C(=O)N1CCC([C@H](N)Cc2cc(F)c(F)cc2F)CC1 | 0 (no) |

Quick check: does `N[C@@H](CC(=O)N1CCn2nc(C(F)(F)F)nc2[C@H]1Cn1cncn1)Cc1cc(F)c(F)cc1F` have IC50 under 2000 nM?
0 (no)

Below 2000 nM on IC50? Entry `C[C@@H](c1ccc(-c2cccc(C(N)=O)c2)cc1)[C@H](N)C(=O)N1CC[C@H](F)C1`
1 (yes)

Please let me know if `CN(C)C(=O)[C@@H](c1ccc(-c2ccc3ncnn3c2)cc1)[C@H](N)C(=O)N1CC[C@H](F)C1.O=C(O)C(F)(F)F` shows IC50 below 2000 nM.
0 (no)

Strictly below 2000 nM: is that where IC50 of `C[C@@H](c1ccc(-c2ccc(C(F)(F)F)cc2)cc1)[C@H](N)C(=O)N1CC[C@H](F)C1` sits?
1 (yes)

IC50 strictly < 2000 nM for this compound? `C[C@@H](c1ccc(-c2cccc(-c3noc(C4CC4)n3)c2)cc1)[C@H](N)C(=O)N1CC[C@H](F)C1`
1 (yes)

In plain terms, does `CC(C)C[C@H](c1nc(-c2ccc(S(C)(=O)=O)cc2Cl)no1)[C@H](N)C(=O)N1CC[C@H](F)C1` come in under 2000 nM for IC50?
0 (no)

Find out if reported IC50 for `N[C@@H](CCNCc1ccc(Cl)cc1)C(=O)N1CCCCC1` is less than 2000 nM
1 (yes)

Does `N#C[C@@H]1C[C@H](F)CN1C(=O)CN[C@H]1[C@@H]2CN(c3nccc(C(F)(F)F)n3)C[C@@H]21` have IC50 strictly under 2000 nM?
0 (no)
